Test: Solubility of bupivacaine free-base and salt in water and ethanol
Type: physicochemical
Settings: water; read-out: solubility in water
Structures can show the parent of a compound that is named as a salt.

compound	readoutUnit	solubility
CCCCN1CCCCC1C(=O)Nc1c(C)cccc1C (stereo not shown) [bupivacaine-HCl]	mg/mL	40

---

Experiment: Solubility of bupivacaine free-base and salt in water and ethanol
Format: physicochemical
Conditions: ethanol, organic solvent or mixture; read-out: solubility in ethanol
Counter-ions that a name gives are not always drawn.
propertyLabel: solubility

compound	propertyLabel	resultValue
CCCCN1CCCCC1C(=O)Nc1c(C)cccc1C (stereo not shown) [bupivacaine-HCl]	solubility	125 mg/mL

---

Assay: Solubility of bupivacaine free-base and salt in water and ethanol
Type: physicochemical
Details: water, pH 7.85, water, thermodynamic from solid; read-out: solubility

compound	solubility
CCCCN1CCCCC1C(=O)Nc1c(C)cccc1C (stereo not shown)	~250 µg/mL
